assay: Evaluation of drug stability under stress conditions (high temperature open condition 60° C.), XRPD and HPLC; assay type: physicochemical; conditions: 60° C. open, week 2
measured_metric: HPLC peak RRT 0.93 (%)
Numbers only; they are read as %.

Task: Any idea what HPLC peak RRT 0.93 was measured for CNCc1cn(S(=O)(=O)c2ccc(OC)nc2)c(-c2ccccc2F)c1OC [Free base] ?
Result: 0.14

----------
assay: Evaluation of solubility in biorelevant media (water, SGF, FaSSIF, FeSSIF), HPLC; type: physicochemical; conditions: water, 37 °C, water, thermodynamic from solid, water, 37° C., 24 h; read-out: Solubility-24 h Concentration
Counter-ions that a name gives are not always drawn.
Collected solubility at 24 h values appear next to each entry.

Consider the following illustrative entries.
compound	solubility at 24 h
CNCc1cn(S(=O)(=O)c2ccc(OC)nc2)c(-c2ccccc2F)c1OC.O=C(O)C(O)C(O)C(=O)O [L-tartrate salt]	> 10000 µg/mL
CNCc1cn(S(=O)(=O)c2ccc(OC)nc2)c(-c2ccccc2F)c1OC [Hydrochloride salt]	> 10000 µg/mL

Let us move to another entry and its solubility at 24 h.
Task: Which solubility at 24 h value belongs to CNCc1cn(S(=O)(=O)c2ccc(OC)nc2)c(-c2ccccc2F)c1OC.O=C(O)CCC(=O)O [Succinate salt] ?
Result: > 10000 µg/mL
